Test system: HOP-62 NSCLC
protocol-text: NCI-60 one-dose screen, 48 h (100 = growth as untreated, 0 = no growth, -100 = all killed)
applied-conditions: 10 µM unless noted
The panel holds about 83,000 compounds, 20% with a hit somewhere; the sample as a whole holds those more often. The source made the active and inactive calls. Rule for the calls: active = growth percent below 10; inactive = the rest.
assay-readout: growth

Below: 3 compounds and their reported growth.
* Cc1cc(N=Nc2ccccc2C)ccc1N | 69.3% (inactive)
* CC[C@@]1(O)C[C@H](OC2CC(N(C)C)C(OC3CC(O)C(OC4CCC(=O)C(C)O4)C(C)O3)C(C)O2)c2c(cc3c(c2O)C(=O)c2c(O)ccc(O)c2C3=O)[C@H]1C(=O)OC (some centres undefined) | 5.22% (active)
* Cc1c(N)nc([C@H](CC(N)=O)NC[C@H](N)C(N)=O)nc1C(=O)N[C@H](C(=O)N[C@H](C)[C@@H](O)[C@H](C)C(=O)N[C@H](C(=O)NCCc1nc(-c2nc(C(=O)NCCC[S+](C)C)cs2)cs1)[C@@H](C)O)C(OC1OC(CO)C(O)C(O)C1OC1OC(CO)C(O)C(OC(N)=O)C1O)c1cnc[nH]1 (some centres undefined) | 43.9% [2.5 µM] (inactive)

# context switch: different compound, same growth
Sample `NCCc1ccc(OCc2ccccc2)c(OCc2ccccc2)c1` , system: HOP-62 NSCLC. Its growth is 87.3% (inactive)
